Consider the following compounds; for each one, report its Ki.
molecular target: isolated recombinant JAK2 kinase domain (Homo sapiens (Human), UniProt O60674); test: JAK2 enzyme assay (Caliper LabChip, Ki); type: biochemical; settings: isolated recombinant JAK2 kinase domain, 0.2 nM enzyme, ATP 25 μM
Sequence (O60674 849-1124): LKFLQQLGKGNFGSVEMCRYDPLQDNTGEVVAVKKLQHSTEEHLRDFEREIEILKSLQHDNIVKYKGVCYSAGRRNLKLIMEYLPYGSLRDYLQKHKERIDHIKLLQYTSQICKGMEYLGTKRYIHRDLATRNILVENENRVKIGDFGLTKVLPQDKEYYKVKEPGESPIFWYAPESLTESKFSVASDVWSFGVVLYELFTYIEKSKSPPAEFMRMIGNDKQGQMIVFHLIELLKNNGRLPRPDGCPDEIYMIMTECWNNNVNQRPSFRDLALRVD
Numbers only, in nM.

Some solved entries appear below for comparison.
compound	assayMetric	valueMeasured
CN1CCN(C(=O)Cn2cc(Nc3nc4c(N5CC6CCC(C5)N6Cc5ccccc5)cccn4n3)cn2)CC1	Ki	105
CN1CCN(C(=O)Cn2cc(Nc3nc4c(N5CC6CCCC(C5)N6C(=O)CCC(F)(F)F)cccn4n3)cn2)CC1	Ki	0.8
CN1CCN(C(=O)Cn2cc(Nc3nc4c(N5CC6CCC(C5)N6S(=O)(=O)CCC(F)(F)F)cccn4n3)cn2)CC1	Ki	1.5
CN(CC1(C#N)CC1)C1CCN(C(=O)Cn2cc(Nc3nc4c(N5CC6CCC(C5)N6C(=O)C5CC(C(F)(F)F)C5)cccn4n3)cn2)CC1 (stereo not shown) [Example 192]	Ki	1.1
CN1CCN(C(=O)Cn2cc(Nc3nc4c(N5CC6CCC(C5)C6C(=O)N5CC(C(F)(F)F)C5)cccn4n3)cn2)CC1 (stereo not shown)	Ki	1.9
CN1CCN(C(=O)Cn2cc(Nc3nc4c(N5CC6CCC(C5)N6C(=O)C5(C#N)CCC5)cccn4n3)cn2)CC1	Ki	3.5

query: Read the entry CN1CCN(C(=O)Cn2cc(Nc3nc4c(N5CC6CCC(C5)N6C(=O)C5CC5C(F)(F)F)cccn4n3)cn2)CC1 (stereo not shown) and write its reported Ki.
result: 1.1
